- experimental_protocol: amyloid nucleation score (Sup35N fusion, yeast selection) (log enrichment); library NNK3; higher = more nucleation; inactive = no reads after selection;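 note: zero at mode of non-aggregating sequences after 7 days selection at 30°C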
readout_kind: amyloid nucleation score

Example substances with recorded amyloid nucleation score:
KSGTGSNWFWKGGLSGTKKH: inactive
CRGTWDNDAVGRVDRNSRKS: inactive
ALLCRMGRVRWPVSHEGNVC: inactive
FVEYSSVQYAACNLDRLFLF: inactive
TIYCWTQNIHDY: 2.3
SSGHAGGYINYSCTFSAYRM: 0.786
KPCHLYMTAEDTYVWMSVGL: inactive
MLRLKYLIELTRDFFGWFLF: inactive

Field: next substance
Record request: amyloid nucleation score value, item YVLSATG
inactive

---

- experimental_protocol: amyloid nucleation score (Sup35N fusion, yeast selection) (log enrichment); library NNK2; higher = more nucleation; inactive = no reads after selection
Class true (1): amyloid nucleation score at least -0.2. Class false (0): amyloid nucleation score below -0.2.

Recorded results for 5 substances are shown here.
HGGRKG: true (1)
LPVGPLVRDNTWHRRVQRWL: true (1)
VFLVCYTYLWTFKSCTYFMN: false (0)
ISPTKSNLYMADVEFREPGT: false (0)
RSNDCDDLMDHVLWGYETYR: true (1)

Could you tell me if the measured amyloid nucleation score of GVVEYRNFADSIVYGSRKFK reaches -0.2 or more?
false (0)

Could you tell me if the measured amyloid nucleation score of LMGKGMSTLGDDGVFSRG reaches -0.2 or more?
false (0)

Could you tell me if the measured amyloid nucleation score of VAQSRLT reaches -0.2 or more?
true (1)

Could you tell me if the measured amyloid nucleation score of WYVLAWDPPLSFMCLGDV reaches -0.2 or more?
true (1)

Could you tell me if the measured amyloid nucleation score of HNLQECSPVGPGTAFFCGSW reaches -0.2 or more?
false (0)

---

- experimental_protocol: amyloid nucleation score (Sup35N fusion, yeast selection) (log enrichment); library NNK1; higher = more nucleation; inactive = no reads after selection
readout_kind: amyloid nucleation score
In your answer, state the number alone without any accompanying words.

Example substances with recorded amyloid nucleation score:
VYRLRLVFKVSYFIIECHKG: -0.851
DLSKFGKHFCLLMHYGFPNH: -0.3
GPTYVSSFLELWRNTSHDFC: -0.402
HEIKIRHFIRMTGSGSYQSL: 0.176
CYKLGYGFVHFSAIMVNIIS: -1.22
MGDFND: -1.08

Record request: amyloid nucleation score value, item VLYGLGSWLVRNIVLSYSVV
0.106

Record request: amyloid nucleation score value, item RVIAYKANPVNTFSYPVWAE
-0.133

Record request: amyloid nucleation score value, item LYCTLLKDSVSSLAVTYMSY
-0.071

Record request: amyloid nucleation score value, item LCEMLF
-0.202

Record request: amyloid nucleation score value, item ISNCYQVKALFVSHFLIRDR
4.29

Record request: amyloid nucleation score value, item LNIRVIRGLGRMNAPVVSDL
1.32

Record request: amyloid nucleation score value, item SSQVIVCDVYSQVTRFSFCE
0.557

Record request: amyloid nucleation score value, item RAISVLPIMSVRAH
0.085

Record request: amyloid nucleation score value, item LVPSWRVFVQHLGLFRAL
0.333

Record request: amyloid nucleation score value, item PRHFVKVIEAPASLLIVYHG
-1.02

Record request: amyloid nucleation score value, item LYVEYKRAMCVMGVSLWVN
0.224

Record request: amyloid nucleation score value, item AMRGYCRAFQIWVWICGLSL
0.027

Record request: amyloid nucleation score value, item RSYSSLSR
0.792

Record request: amyloid nucleation score value, item GSGVDSRVSCKKFILSLVGA
-0.39

Record request: amyloid nucleation score value, item KILTVHPSHNDPC
-1.32

Record request: amyloid nucleation score value, item HKRLVGSYWFIFYSVTRYQE
-0.685

Record request: amyloid nucleation score value, item KVLILCAT
1.1

Record request: amyloid nucleation score value, item FVSWLFVS
-1.4

Record request: amyloid nucleation score value, item GSTTSLRFTVLQTFLFSCNN
-0.663

---

- experimental_protocol: amyloid nucleation score (Sup35N fusion, yeast selection) (log enrichment); library NNK3; higher = more nucleation; inactive = no reads after selection
readout_kind: amyloid nucleation score

Example substances with recorded amyloid nucleation score:
RVFSTFILYGETKFFLVPET: 0.677
LWTELYVYPLNMTVMVAIF: inactive
HYYINNTWMFKVYNRLLKRR: 2.51
VSTSVDYFYGGPWTLVFGCL: 2.6
FILQGFPE: inactive

Record request: amyloid nucleation score value, item HRGYAAFFS
inactive

Record request: amyloid nucleation score value, item NMTVSHWGLTMSRL
1.26

Record request: amyloid nucleation score value, item FACRVGGEHGGV
inactive

Record request: amyloid nucleation score value, item RPDCEYGSS
inactive

Record request: amyloid nucleation score value, item ARVKWMVGEIWCQSDDKPLE
inactive

Record request: amyloid nucleation score value, item RIRFKRGVPSVVAHVVLR
inactive

Record request: amyloid nucleation score value, item CVTVNIELLTWITACGNFTL
1.62

Record request: amyloid nucleation score value, item FCGGVAFMMVNVERVRTRRE
1.39

---

- experimental_protocol: amyloid nucleation score (Sup35N fusion, yeast selection) (log enrichment); library NNK2; higher = more nucleation; inactive = no reads after selection
readout_kind: amyloid nucleation score
In your answer, state the number alone without any accompanying words.

NYLRYLLMDSHMRLMDRWKQ: 4.87
VWNYISLNEAM: -0.946
CEVLKHSCTDSEMHAKADGV: -0.307
GSIVVNGIGKLGKERRVTSV: 0.302

Record request: amyloid nucleation score value, item TRISGLGPDRDFSFRAASAK
-0.446

---

- experimental_protocol: amyloid nucleation score (Sup35N fusion, yeast selection) (log enrichment); library NNK3; higher = more nucleation; inactive = no reads after selection
readout_kind: amyloid nucleation score

LVEISTVERRALIFYRCIDL: -0.481
FYMFDSRLLFWRYCCWKFSY: inactive
PGDNIYILMGVYKGILWWAE: inactive
TSWLVWRKGNGLGGNGQQRR: inactive
GRSMLMLRTYNM: -0.056
IALKGRAFAHEGCLRGRRGG: inactive
YSVPCSWWTLQLGILPLSRR: inactive
EAVSDLNVGPAVRCGG: inactive

Record request: amyloid nucleation score value, item ALFKTYHLKGMFGKNWVLVV
inactive

Record request: amyloid nucleation score value, item MKLSVLNVWNSRWGLQTA
inactive

Record request: amyloid nucleation score value, item SCLTDKRSCFC
0.538

Record request: amyloid nucleation score value, item ALLTAYDRKNTNGYAGVRWN
inactive

Record request: amyloid nucleation score value, item NCVCEWTAFLYIPSIWGFEH
1.78

Record request: amyloid nucleation score value, item FRFTFLMRNML
inactive

Record request: amyloid nucleation score value, item CATIILSCILSL
1.14

Record request: amyloid nucleation score value, item DWRLRSFICRAVVVCCINGD
1.54

Record request: amyloid nucleation score value, item ANKPWVNDIFPT
inactive

---

- experimental_protocol: amyloid nucleation score (Sup35N fusion, yeast selection) (log enrichment); library NNK1; higher = more nucleation; inactive = no reads after selection
Measured amyloid nucleation score, listed per entry.
In your answer, state the number alone without any accompanying words.

Example substances with recorded amyloid nucleation score:
NLYVNN: -0.623
MLACDVISPFCYVNWKRLCR: 2.43
PSGVCSIVVFKCLRRVMSSL: 0.353
INGRTGILRRVGN: -1.28
IKPANYA: -0.679
AVRDDMDY: -0.059
RKFGPMG: 0.848
NLSCIHGLYYGSRLVSGLYQ: 0.15

Field: next substance
Record request: amyloid nucleation score value, item LVDSPCQRSYTRRPHTHWR
0.15

---

Measured amyloid nucleation score, listed per entry.
- experimental_protocol: amyloid nucleation score (Sup35N fusion, yeast selection) (log enrichment); library NNK2; higher = more nucleation; inactive = no reads after selection
In your answer, state the number alone without any accompanying words.

KNGQYDGTGDNSLLGPDGFI: 3.44

Record request: amyloid nucleation score value, item GVPALGFGLAGLTVACFAEE
-0.097

Record request: amyloid nucleation score value, item SGFSVTNCGN
-0.155

Record request: amyloid nucleation score value, item FMGTLNRELYTGRYGVG
-0.243

Record request: amyloid nucleation score value, item CSWVRSLYNGIVLKKH
-0.652

---

- experimental_protocol: amyloid nucleation score (Sup35N fusion, yeast selection) (log enrichment); library NNK2; higher = more nucleation; inactive = no reads after selection
Class true (1): amyloid nucleation score at least -0.3. Class false (0): amyloid nucleation score below -0.3.

LVEFSSRFQLGFTGSVNS: true (1)
ETFNCNFVWL: true (1)
NLCSKRRNL: false (0)
PRSSAVYIRTLRVSQKVDPM: true (1)

Next, consider the following sequence.
Could you tell me if the measured amyloid nucleation score of VGFRSSCMVTSLIY reaches -0.3 or more?
false (0)
